// reported log2 ratio of Biotin-Ahx-Ub-VS probe labelling per item
# experimental_target: USP39 (UniProt Q53GS9)
# Sequence (Q53GS9 whole entry, the tested form may be a part): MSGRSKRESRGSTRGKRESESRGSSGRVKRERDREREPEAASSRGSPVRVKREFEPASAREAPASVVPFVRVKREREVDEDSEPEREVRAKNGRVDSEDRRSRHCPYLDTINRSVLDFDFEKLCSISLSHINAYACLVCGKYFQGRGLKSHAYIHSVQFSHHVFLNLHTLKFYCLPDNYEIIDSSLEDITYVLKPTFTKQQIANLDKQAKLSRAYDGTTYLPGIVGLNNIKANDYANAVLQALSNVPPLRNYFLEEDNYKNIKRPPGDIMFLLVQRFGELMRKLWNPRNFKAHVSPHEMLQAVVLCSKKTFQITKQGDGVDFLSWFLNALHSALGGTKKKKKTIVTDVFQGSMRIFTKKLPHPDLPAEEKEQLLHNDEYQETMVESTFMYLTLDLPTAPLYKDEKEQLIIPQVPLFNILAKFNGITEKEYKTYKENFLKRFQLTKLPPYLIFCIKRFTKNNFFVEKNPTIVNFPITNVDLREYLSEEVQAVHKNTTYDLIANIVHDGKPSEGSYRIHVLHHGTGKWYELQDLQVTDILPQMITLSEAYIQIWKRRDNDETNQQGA
# measurement_description: log2 ratio of Biotin-Ahx-Ub-VS probe labelling (fragment/DMSO); higher = less target engagement (more negative = stronger competition), active = hit call of the paper (q ≤ 0.05, log2 ratio ≤ -1)
# condition_details: compound concentration: 200 uM; treatment time: 3 h
recorded_metric: log2 ratio of Biotin-Ahx-Ub-VS probe labelling

molecule: O=C(CCl)NC1(c2ccc3c(c2)OCCO3)CCCC1
measurement: 0.277
//
molecule: CN(CCC(O)c1ccc(Br)cc1)C(=O)CCl (centres undefined)
measurement: -0.00535
//
molecule: Cl.Cn1nc2c(c1CNC(=O)CCl)CCCC2
measurement: 0.242
//
molecule: Cc1ncsc1CCNC(=O)CCl
measurement: -0.101
//
molecule: Cl.O=C(CCl)N1CCN(Cc2ccccc2)CC1
measurement: 0.144
//
molecule: Cc1ccc2nnc(CNC(=O)CCl)n2c1
measurement: -0.108
//
molecule: N#Cc1ccc(Cl)cc1NC(=O)CCl
measurement: -0.0922
//
molecule: COCC1C=CCCN1C(=O)CCl (centres undefined)
measurement: -0.196
//
molecule: Cl.O=C(CCl)NCc1cc2c(nc1O)CCCC2
measurement: -0.212

* * *

# experimental_target: USP15 (UniProt Q9Y4E8)
# Sequence (Q9Y4E8 whole entry, the tested form may be a part): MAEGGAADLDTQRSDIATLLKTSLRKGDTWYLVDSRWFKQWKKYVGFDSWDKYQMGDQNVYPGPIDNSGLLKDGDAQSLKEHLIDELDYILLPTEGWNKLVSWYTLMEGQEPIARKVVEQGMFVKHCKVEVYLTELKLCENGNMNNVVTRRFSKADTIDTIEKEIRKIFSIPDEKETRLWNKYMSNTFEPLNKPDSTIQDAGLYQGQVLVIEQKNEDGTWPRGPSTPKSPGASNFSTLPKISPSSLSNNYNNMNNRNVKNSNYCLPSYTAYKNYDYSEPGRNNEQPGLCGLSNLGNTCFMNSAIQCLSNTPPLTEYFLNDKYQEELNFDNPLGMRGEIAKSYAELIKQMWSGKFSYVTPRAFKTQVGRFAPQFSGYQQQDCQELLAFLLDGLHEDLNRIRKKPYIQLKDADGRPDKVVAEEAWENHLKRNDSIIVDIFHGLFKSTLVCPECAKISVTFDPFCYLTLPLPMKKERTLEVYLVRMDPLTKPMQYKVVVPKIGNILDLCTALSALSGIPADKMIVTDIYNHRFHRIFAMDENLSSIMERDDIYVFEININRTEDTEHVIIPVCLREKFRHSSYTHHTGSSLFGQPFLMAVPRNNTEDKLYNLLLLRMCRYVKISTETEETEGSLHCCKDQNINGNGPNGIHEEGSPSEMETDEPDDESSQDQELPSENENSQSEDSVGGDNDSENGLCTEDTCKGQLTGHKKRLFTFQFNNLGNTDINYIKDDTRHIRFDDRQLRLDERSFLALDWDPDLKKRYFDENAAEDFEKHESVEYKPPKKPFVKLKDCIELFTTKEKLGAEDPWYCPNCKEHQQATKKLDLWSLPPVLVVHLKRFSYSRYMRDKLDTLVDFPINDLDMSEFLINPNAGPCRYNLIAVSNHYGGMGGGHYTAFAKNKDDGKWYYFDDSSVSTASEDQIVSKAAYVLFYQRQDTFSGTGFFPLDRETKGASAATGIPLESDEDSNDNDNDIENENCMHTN
# measurement_description: log2 ratio of Biotin-Ahx-Ub-VS probe labelling (fragment/DMSO); higher = less target engagement (more negative = stronger competition), active = hit call of the paper (q ≤ 0.05, log2 ratio ≤ -1)
# condition_details: compound concentration: 200 uM; treatment time: 3 h
// reported log2 ratio of Biotin-Ahx-Ub-VS probe labelling per item
recorded_metric: log2 ratio of Biotin-Ahx-Ub-VS probe labelling

compound: O=C(CCl)N1CC=C(c2c[nH]c3ccccc23)CC1
measurement: -1.46
//
compound: CC(NC(=O)CCl)c1cnn(C2CC2)c1 (stereo not given)
measurement: -0.182
//
compound: O=C(CCl)Nc1cc(Cl)ccc1C(=O)O
measurement: -0.15
//
compound: CN1c2ccccc2C(NC(=O)CCl)CS1(=O)=O (stereo not given)
measurement: -0.212
//
compound: O=C(CCl)N1c2ccccc2NC(=O)C12CCCC2
measurement: 0.113

* * *

# experimental_target: USP22 (UniProt Q9UPT9)
# Sequence (whole entry): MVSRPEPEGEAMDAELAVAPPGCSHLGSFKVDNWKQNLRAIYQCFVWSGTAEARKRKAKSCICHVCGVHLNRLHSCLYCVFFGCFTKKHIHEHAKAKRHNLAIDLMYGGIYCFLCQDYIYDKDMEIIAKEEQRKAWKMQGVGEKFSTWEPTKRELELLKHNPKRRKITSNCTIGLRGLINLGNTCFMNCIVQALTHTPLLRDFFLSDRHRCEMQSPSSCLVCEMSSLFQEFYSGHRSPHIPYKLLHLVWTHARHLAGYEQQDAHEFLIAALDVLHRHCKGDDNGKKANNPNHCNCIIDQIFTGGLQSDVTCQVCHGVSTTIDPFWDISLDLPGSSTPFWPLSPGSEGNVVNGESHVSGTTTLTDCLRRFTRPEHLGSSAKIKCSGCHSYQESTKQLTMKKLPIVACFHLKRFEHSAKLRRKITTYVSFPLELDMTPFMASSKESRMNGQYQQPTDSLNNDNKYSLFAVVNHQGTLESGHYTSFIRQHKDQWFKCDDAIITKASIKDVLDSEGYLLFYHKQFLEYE
# measurement_description: log2 ratio of Biotin-Ahx-Ub-VS probe labelling (fragment/DMSO); higher = less target engagement (more negative = stronger competition), active = hit call of the paper (q ≤ 0.05, log2 ratio ≤ -1)
# condition_details: compound concentration: 200 uM; treatment time: 3 h
recorded_metric: log2 ratio of Biotin-Ahx-Ub-VS probe labelling

molecule: O=C(CCl)N1CCCN(C(=O)c2ccc(Cl)cc2)CC1
measurement: -0.095
--
molecule: O=C(CCl)N1CCCCCC1c1ncon1 (centres undefined)
measurement: -0.0397
--
molecule: Cc1cccc(C)c1NC(=O)CCl
measurement: 0.0867
--
molecule: O=C(CCl)N1CCN(c2nc3ccccc3o2)CC1
measurement: 0.146
--
molecule: COc1ccc(CN(C)C(=O)CCl)cc1
measurement: -0.227
--
molecule: NC(=O)C(Cc1ccccc1)NC(=O)CCl (centres undefined)
measurement: -0.0897
--
molecule: O=C(CCl)N1CCc2sccc2C1
measurement: -0.23
--
molecule: Cc1noc(N2CCN(C(=O)CCl)CC2)n1.Cl
measurement: 0.0656
--
molecule: CC1CCc2onc(CNC(=O)CCl)c2C1 (centres undefined)
measurement: 0.192
--
molecule: O=C(CCl)NC1CCS(=O)(=O)c2ccccc21 (centres undefined)
measurement: -0.0769
--
molecule: O=C(CCl)NCc1ccc(N2CCOCC2)nc1
measurement: -0.181
--
molecule: CC(=O)C1CCCCN1C(=O)CCl (centres undefined)
measurement: 0.0806
--
molecule: Cc1conc1C1CN(C(=O)CCl)C1
measurement: -0.421
--
molecule: Cc1ncc2c(n1)CCN(C(=O)CCl)C2
measurement: -0.119
--
molecule: O=C(CCl)Nc1cccc(C(=O)N2CCSCC2)c1
measurement: -0.0474
--
molecule: O=C(CCl)N[C@H]1CC[C@@H](CO)CC1
measurement: -0.256
--
molecule: O=C(CCl)Nc1nc(-c2cccs2)cs1
measurement: -0.167
--
molecule: O=C(CCl)N1CCC(S(=O)(=O)c2ccc(F)cc2)CC1
measurement: 0.191
--
molecule: O=C(CCl)Nc1ccc(F)cc1Cl
measurement: -0.0369
--
molecule: O=C(CCl)N1CCN(C(=O)N2CCCCC2)CC1
measurement: -0.465
--
molecule: COc1cccc(CN(C)C(=O)CCl)c1
measurement: -0.426
--
molecule: O=C(CCl)NCCc1ccc(F)cc1
measurement: 0.0853
--
molecule: O=C(CCl)N1c2ccccc2NC(=O)C12CCCC2
measurement: 0.00548
--
molecule: Cl.Cn1cnc2cc(CNC(=O)CCl)ccc21
measurement: 0.00285
--
molecule: O=C(CCl)NC1CCOc2ccccc21 (centres undefined)
measurement: -0.51
--
molecule: Cc1nc(CN2CCN(C(=O)CCl)CC2)cs1
measurement: -0.169
--
molecule: Cc1c(C#N)c(NC(=O)CCl)n(Cc2ccco2)c1C
measurement: -0.178
--
molecule: Cl.O=C(CCl)N1CCn2cncc2C1
measurement: -0.0616
--
molecule: O=C(CCl)N1CCOC(CCc2ccccc2)C1 (centres undefined)
measurement: -0.0816

* * *

# experimental_target: VCPIP1 (UniProt Q96JH7)
# Sequence (whole entry): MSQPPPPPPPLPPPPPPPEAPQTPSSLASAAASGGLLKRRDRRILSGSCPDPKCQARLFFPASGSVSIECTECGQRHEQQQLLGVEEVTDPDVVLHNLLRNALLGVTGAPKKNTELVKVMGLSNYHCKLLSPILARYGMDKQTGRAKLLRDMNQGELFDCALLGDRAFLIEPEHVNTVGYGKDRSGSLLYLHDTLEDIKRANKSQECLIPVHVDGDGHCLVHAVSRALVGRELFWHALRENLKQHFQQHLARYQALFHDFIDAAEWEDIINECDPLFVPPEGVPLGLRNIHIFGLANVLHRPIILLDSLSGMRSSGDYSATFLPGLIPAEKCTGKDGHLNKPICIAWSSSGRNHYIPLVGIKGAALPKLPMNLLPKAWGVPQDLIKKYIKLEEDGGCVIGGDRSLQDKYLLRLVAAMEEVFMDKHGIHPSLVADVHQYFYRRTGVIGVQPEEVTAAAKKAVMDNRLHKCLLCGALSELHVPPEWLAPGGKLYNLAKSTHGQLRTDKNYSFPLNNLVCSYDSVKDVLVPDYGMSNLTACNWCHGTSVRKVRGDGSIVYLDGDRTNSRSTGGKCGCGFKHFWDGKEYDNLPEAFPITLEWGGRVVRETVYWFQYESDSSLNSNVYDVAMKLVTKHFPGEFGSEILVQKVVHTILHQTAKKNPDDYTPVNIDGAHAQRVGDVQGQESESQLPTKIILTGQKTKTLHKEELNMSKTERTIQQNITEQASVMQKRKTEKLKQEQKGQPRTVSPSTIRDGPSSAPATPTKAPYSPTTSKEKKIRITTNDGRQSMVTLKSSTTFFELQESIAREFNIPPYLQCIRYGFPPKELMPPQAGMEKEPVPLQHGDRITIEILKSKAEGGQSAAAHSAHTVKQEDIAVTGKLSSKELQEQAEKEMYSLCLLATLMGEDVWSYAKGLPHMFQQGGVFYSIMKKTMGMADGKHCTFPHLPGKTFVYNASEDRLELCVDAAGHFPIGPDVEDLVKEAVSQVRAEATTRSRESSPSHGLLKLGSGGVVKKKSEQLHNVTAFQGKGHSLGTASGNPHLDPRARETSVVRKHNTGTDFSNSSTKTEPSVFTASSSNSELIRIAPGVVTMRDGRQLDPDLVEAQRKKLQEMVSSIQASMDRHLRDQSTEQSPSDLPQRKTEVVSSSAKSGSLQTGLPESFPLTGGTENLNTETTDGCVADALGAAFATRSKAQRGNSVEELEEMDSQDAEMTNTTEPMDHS
# measurement_description: log2 ratio of Biotin-Ahx-Ub-VS probe labelling (fragment/DMSO); higher = less target engagement (more negative = stronger competition), active = hit call of the paper (q ≤ 0.05, log2 ratio ≤ -1)
# condition_details: compound concentration: 200 uM; treatment time: 3 h
Outcome codes: 1 = active, -1 = inactive

molecule: CN(C)C(=O)c1ccc(CNC(=O)CCl)cc1
experimental_target: VCPIP1 (UniProt Q96JH7)
label: -1
//
molecule: O=C(CCl)N1c2ccccc2NC(=O)C12CCCC2
experimental_target: VCPIP1 (UniProt Q96JH7)
label: -1
//
molecule: Cl.Cn1nccc1C(NC(=O)CCl)c1ccccc1 (centres undefined)
experimental_target: VCPIP1 (UniProt Q96JH7)
label: 1
//
molecule: Cc1ccc(CC(CO)CNC(=O)CCl)cc1 (centres undefined)
experimental_target: VCPIP1 (UniProt Q96JH7)
label: 1
